Experiment: HUVEC growth inhibition – cell-based, human, primary screen (AID 575);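 note: 100% = median of untreated cell wells with 0.1% DMSO on each plate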
Conditions: HUVEC proliferation, CellTiter-Glo luminescence, 72 h; at 10 µM; active compounds read low
Threshold-based label: viability under 90% gives 1 (yes), viability not under 90% gives 0 (no).

The examples below pair each entry with its known result.
smiles-structure	class-label
O=C1CCCC(O)=C1C=Nc1ccc2c(c1)oc1ccccc12	1 (yes)
CCOC(=O)N1CCN(C(=O)CSc2nnc(Cc3ccccc3)o2)CC1	1 (yes)

Ask: Please let me know if "CCC(=O)Nc1c(C#N)c2nc3ccccc3nc2n1-c1ccccc1C" shows viability below 90%.
Result: 0 (no)

Ask: Please let me know if "Nc1ncnc2nc(SCCN3CCCCC3)[nH]c12" shows viability below 90%.
Result: 0 (no)

====

I'd be grateful if you could share measured inhibition for these entries.
Assay: growth suppression of yeast trafficking mutant, preliminary HTS, modulators of trafficking downstream of Golgi apparatus project, 1536-format plate, OD 615 nm (AID 637)
Conditions: yeast transport mutant growth, absorbance 615 nm, 18 h; active compounds read high
Give bare numbers, in %.

Reference set, count: 2
molecule	quantitative-result
CCSc1nnc(NC(=O)C(CC)(C(F)(F)F)C(F)(F)F)s1	33.3
O=C(CCN1CCN(c2ccc(F)cc2)CC1)Nc1ccccc1F	4.75

Form field inhibition, entry COCCN(C(=O)c1csnn1)C(C(=O)NC1CCCCC1)c1cccs1 (stereo not drawn) : 2.86

====

Test: growth inhibitors of H69AR lung tumor, primary screen, human, duplicate replicates (AID 580);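 note: 100% = mean luminescence of untreated wells and 0% = no signal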
Conditions: H69AR lung tumor cells viability, ATP luminescence, 72 h; at 10 µM; active compounds read low
Threshold-based label: viability under 90% gives Condition met, viability not under 90% gives Condition not met.

The examples below pair each entry with its known result.
molecule	class-label
Cc1ccc(-n2ncc3c(=O)[nH]c(SCC(=O)N4CCN(c5ccccc5)CC4)nc32)cc1	Condition met
COC(=O)c1sc(N2C(=O)C(O)=C(C(=O)c3ccc(C)o3)C2c2ccc(F)cc2)nc1C (configuration not stated)	Condition not met
CN(C)C(=O)Cn1c(SCC(=O)NC2CCCCC2)nc2ccccc21	Condition not met
O=C(OCn1nnc2ccccc2c1=O)C1CCN(S(=O)(=O)c2cccs2)CC1	Condition not met
COC(=O)c1ccc(C)c(NS(=O)(=O)c2ccc3c(c2)OCCO3)c1	Condition met
CCOc1ccc(OCc2ccc(C(=O)Nc3cccc(C)n3)o2)cc1	Condition not met

Please examine the following record next.
Ask: Please let me know if "Cn1c(=O)c2c(nc(N3CCCCC3)n2CCSc2nc3ccccc3o2)n(C)c1=O" shows viability below 90%.
Result: Condition met

====

I'd be grateful if you could share measured inhibition for these entries.
Test: growth suppression of yeast trafficking mutant, preliminary HTS, modulators of trafficking downstream of Golgi apparatus project, 1536-format plate, OD 615 nm (AID 637)
Conditions: yeast transport mutant growth, absorbance 615 nm, 18 h; active compounds read high
Numbers only, in %.

Reference set, count: 2
compound	quantitative-result
COc1ccc(Nc2nc(OC)nc(N3CCN(c4ccc(OC)cc4)CC3)n2)cc1	-3.06
CCOC(=O)c1c(-c2ccc(C)o2)csc1NC(=O)COC(=O)c1cccs1	-3.77

Form field inhibition, entry CCCCCC1CC(CC(C)C(=O)Nc2nncs2)C(=O)O1 (stereo not drawn) : -2.86
